Hi, quick share: literature Ki data for the protein given by its sequence, several sources combined.
Target sequence: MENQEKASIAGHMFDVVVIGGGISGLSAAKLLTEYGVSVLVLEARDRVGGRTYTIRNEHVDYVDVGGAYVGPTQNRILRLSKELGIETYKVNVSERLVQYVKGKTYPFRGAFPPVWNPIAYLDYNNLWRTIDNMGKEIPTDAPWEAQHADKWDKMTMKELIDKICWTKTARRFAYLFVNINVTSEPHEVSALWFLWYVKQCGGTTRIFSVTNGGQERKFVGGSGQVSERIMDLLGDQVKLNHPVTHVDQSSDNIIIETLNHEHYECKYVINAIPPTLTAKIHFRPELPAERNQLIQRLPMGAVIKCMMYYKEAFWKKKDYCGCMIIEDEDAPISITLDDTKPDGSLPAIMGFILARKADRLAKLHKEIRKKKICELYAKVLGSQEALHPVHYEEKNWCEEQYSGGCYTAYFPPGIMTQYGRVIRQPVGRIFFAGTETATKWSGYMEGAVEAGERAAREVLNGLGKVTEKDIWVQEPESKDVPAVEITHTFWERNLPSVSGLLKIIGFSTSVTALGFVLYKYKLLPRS
readout: Ki (nM)

Solved cases (4 shown):
Cc1ccc(C2CC(c3ccccc3)=NN2C(N)=O)cc1 (stereo unspecified); 490
C#CCN(C)[C@@H]1CCc2ccccc21; 4900
Cc1cccc(/C=C/C(=N/NC(=O)c2snnc2C)c2ccc(Cl)cc2)c1; 10
Fc1ccc(C2CC(c3ccccc3)=NN2C(=S)Nc2ccccc2)cc1 (stereo unspecified); 0.1

(a) CNC(=S)N1N=C(c2ccc(OC)cc2)CC1c1ccc(F)cc1 (stereo unspecified)
(b) Cc1ccc(/C=C/C(=N\NC(=O)c2cccs2)c2ccc(Cl)cc2)cc1
Problem: Quick check, higher Ki between a and b ? Label of pick, please.
Result: b
(b: 34 nM, a: 0.1 nM)

---

Hi, quick share: literature pKi data for Amine oxidase [flavin-containing] A (Homo sapiens), several sources combined.
test system: Amine oxidase [flavin-containing] A (Homo sapiens)
Sequence (P21397 whole entry): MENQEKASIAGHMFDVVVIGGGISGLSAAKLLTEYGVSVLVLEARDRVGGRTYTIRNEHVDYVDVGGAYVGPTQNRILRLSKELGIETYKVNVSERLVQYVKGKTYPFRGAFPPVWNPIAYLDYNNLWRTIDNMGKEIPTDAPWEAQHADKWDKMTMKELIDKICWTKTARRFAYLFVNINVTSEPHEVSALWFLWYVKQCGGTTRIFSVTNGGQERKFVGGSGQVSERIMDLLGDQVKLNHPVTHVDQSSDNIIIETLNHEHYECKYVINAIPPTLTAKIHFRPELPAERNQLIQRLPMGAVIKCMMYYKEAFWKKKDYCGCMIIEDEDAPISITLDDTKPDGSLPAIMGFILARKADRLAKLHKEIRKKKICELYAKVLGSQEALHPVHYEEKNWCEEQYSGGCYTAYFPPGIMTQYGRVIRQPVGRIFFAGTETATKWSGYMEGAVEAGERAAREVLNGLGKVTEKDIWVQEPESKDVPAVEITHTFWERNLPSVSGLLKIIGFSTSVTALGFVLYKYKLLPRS
pKi: −log10 of the molar value.
readout: pKi

CCNC(=S)N1N=C(c2ccc(Cl)cc2)CC1c1ccc(F)cc1 (configuration not stated); 10.00
COc1ccc(C2CC(c3ccccc3)=NN2C(N)=O)cc1 (configuration not stated); 6.01
Cc1ccc([C@H]2CC(c3cc(Br)ccc3O)=NN2C(=O)c2ccco2)cc1; 6.35

(a) Cc1ccc(/C=C/C(=N/NC(=O)c2snnc2C)c2ccc(Cl)cc2)cc1
(b) COc1ccc(NC(=S)N2N=C(c3ccccc3)CC2c2ccc(O)cc2)cc1 (configuration not stated)
(c) CC(C)c1cn(C[C@H]2CN(c3ccc(C4=CCS(=O)(=O)CC4)c(F)c3)C(=O)O2)nn1
(d) Fc1ccc(C2CC(c3ccc(Cl)cc3)=NN2C(=S)Nc2ccccc2)cc1 (configuration not stated)
(e) Fc1ccc(-c2csc(N/N=C/c3ccc(N4CCOCC4)cc3)n2)cc1
Problem: Please order the records by their reported pKi, lowest number first. The labels, placed in the requested order, form the answer.
Result: c, b, a, e, d
(c: 3.99, b: 7.05, a: 7.92, e: 8.18, d: 10.00)

(1) COc1cccc(NC(=S)N2N=C(c3ccccc3)CC2c2ccccc2O)c1 (configuration not stated)
(2) Cc1cccc(NC(=S)N2N=C(c3ccccc3)CC2c2ccccc2O)c1 (configuration not stated)
(3) CNC(=S)N1N=C(c2ccccc2)CC1c1ccc(F)cc1 (configuration not stated)
(4) COc1ccc(C(/C=C/c2ccc(C)cc2)=N\NC(=O)c2snnc2C)cc1
(5) COc1ccc(C(=O)N2N=C(c3cc(Cl)ccc3O)C[C@@H]2c2ccc(C)cc2)cc1
Problem: Please order the records by their reported pKi, lowest number first. The labels, placed in the requested order, form the answer.
Result: 5, 2, 1, 4, 3
